test_summary: NCI Yeast Anticancer Drug Screen. Data for the rad50 strain (AID 155);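 also: 0% = growth of vehicle-only cultures of the same strain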
recorded_conditions: S. cerevisiae rad50 strain growth inhibition; at 5.0 µM (retest, dose inferred, filed as 0.5)
This is part of a sample that, as a whole, favours compounds with a hit. Of some 79,000 tested, about 15% had one in any assay. Active and inactive are the calls of the source. Rule as the data show it: active = growth inhibition above about 70%; inactive = the rest.
Can you answer with just one of these options? True = active, False = inactive

Solved entries (count: 8):
Cc1cc(C(C)(C)c2ccc(O)c(C)c2)ccc1O
False
COc1cc(/C=C\[N+](=O)[O-])ccc1O
True
COc1ccc([As]=[As]c2ccc(OC)c(I)c2)cc1I (stereo not drawn)
True
O=[N+]([O-])/C=C/c1cccc([N+](=O)[O-])c1
True
Cc1ccc([NH-])cc1C.Cc1ccc([NH-])cc1C.[Cl][Pt+2][Cl]
False
CC(Br)C(=O)C(CCN(C)C)(c1ccccc1)c1ccc(Br)s1 (stereo not drawn)
False
Cc1cc[n+](C2C(=O)c3ccccc3C(=O)C2Nc2cc(Cl)ccc2Cl)cc1 (stereo not drawn)
False
CC1CCC2(OC1)OC1C(O)C3C4CCC5CC(OC6OC(CO)C(OC7OC(CO)C(O)C(OC8OCC(O)C(O)C8O)C7OC7OC(CO)C(O)C(OC8OC(CO)C(O)C(O)C8O)C7O)C(O)C6O)C(O)CC5(C)C4CCC3(C)C1C2C (stereo not drawn)
True

// query # lookup: test call for "CCOP(=S)(OCC)SCc1c(C)c(C)c(CSP(=S)(OCC)OCC)c(C)c1C"
// result False

// query # lookup: test call for "C[CH2][Sn]([F])([CH2]C)[CH2]C"
// result False

// query # lookup: test call for "CCSc1nc(=[N+]2CCCC2)ss1"
// result False

// query # lookup: test call for "O=[N+]([O-])/C=C/c1ccc(Cl)cc1[N+](=O)[O-]"
// result True

// query # lookup: test call for "O=C(O)C(O)(c1ccc(-c2ccccc2)cc1)c1ccc(-c2ccccc2)cc1"
// result False

// query # lookup: test call for OC1CCCC2CCCNC12 (stereo not drawn)
// result True

// query # lookup: test call for "COc1c[c]([Hg][O]C(C)=O)c(OC)c(NC(=O)CC(C)=O)[c]1[Hg][O]C(C)=O"
// result True

// query # lookup: test call for "O=c1c2ccccc2[nH]c(=S)n1-c1cccc(C(F)(F)F)c1"
// result False

// query # lookup: test call for "CC(=O)c1ccc(-[n+]2c(C)cc(-c3ccccc3)cc2C)cc1"
// result False

// query # lookup: test call for C[C@]12CC[C@H](OC3OC(CO)C(O)C(O)C3O)C[C@H]1CC[C@@H]1[C@@H]2CC[C@]2(C)[C@@H](C3=CCOC3=O)CC[C@]12O (stereo partly drawn)
// result False

---

test_summary: NCI Yeast Anticancer Drug Screen. Data for the mlh1 rad18 strain (AID 175)
recorded_conditions: S. cerevisiae mlh1 rad18 strain growth inhibition; at 50.0 µM (retest, dose inferred, filed as 5.0)
This is part of a sample that, as a whole, favours compounds with a hit. Of some 79,000 tested, about 15% had one in any assay. Calls of active or inactive are those of the source. Rule as the data show it: active = growth inhibition above about 70%; inactive = the rest.
Can you answer with just one of these options? 1.0 = active, 0.0 = inactive

C[C@@H](O)[C@H]1/C=C/C=C\C(=O)O[C@@H]2C[C@H]3O[C@@H]4[C@@H]5OC5(C)CCC4(COC(=O)[C@H]4O[C@]4(C)[C@@H](O)CO1)[C@]2(C)[C@]31CO1 (stereo partly specified)
1.0
O=[n+]1c2ccccc2n([O-])c2ccccc21
1.0
N#CC1CC[CH-]CC1.[Cl-].[Cl-].[Cl-].[Cl-].[Cl-].[Sb+5].c1ccncc1
1.0
CCCCCCCCCCC(=O)O.[Pb]
0.0
CCOC(=O)c1ccc(N=Cc2ccc(N(CCCl)CCCl)cc2C)cc1
1.0

// query # lookup: test call for "CCOP(=O)(OCC)/C(C#N)=C/c1cccc(F)c1"
// result 0.0

// query # lookup: test call for CC1CCN(CCC(=O)CC(c2ccccc2)c2c(O)c3ccccc3oc2=O)CC1 (stereo unspecified)
// result 0.0

// query # lookup: test call for "Nc1nc(N)c(-c2ccc(Cl)c(Cl)c2)c(CCc2ccc(CNC(=O)c3cccc(S(=O)(=O)F)c3)cc2)n1"
// result 1.0

// query # lookup: test call for "ClCCN1CCOCC1"
// result 1.0

// query # lookup: test call for "O=C(CCCc1ccccc1)[O][Hg][c]1ccccc1"
// result 1.0

// query # lookup: test call for O=C1CCCC1Cl (stereo unspecified)
// result 0.0
